- target of assay: T1, sIL-6R (soluble IL-6 receptor; SBH Sciences) (human, UniProt P08887 20-365)
- T1 construct: also called human IL-6R
- T1 sequence: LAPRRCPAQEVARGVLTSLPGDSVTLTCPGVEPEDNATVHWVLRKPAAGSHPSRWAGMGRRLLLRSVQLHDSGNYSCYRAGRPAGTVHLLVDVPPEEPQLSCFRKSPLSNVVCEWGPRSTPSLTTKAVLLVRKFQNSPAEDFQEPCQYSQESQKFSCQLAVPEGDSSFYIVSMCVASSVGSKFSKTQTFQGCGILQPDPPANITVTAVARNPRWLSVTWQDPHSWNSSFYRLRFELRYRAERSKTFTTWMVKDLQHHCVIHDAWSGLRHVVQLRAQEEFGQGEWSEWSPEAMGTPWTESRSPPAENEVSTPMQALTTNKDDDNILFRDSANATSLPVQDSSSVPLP
- experimental protocol: SPR (BIAcore 3000), antibody on chip, sIL-6R analyte, 25 C
- Method: All SPR measurements were performed on a BIAcore 3000 instrument (GE Biosciences, Piscataway, N.J.). BIAcore Software-BIAcore 3000 Control Software V3.2 was used for the operation and control of the BIAcore 3000 instrument. […] Data was analyzed by using the Kinetics Wizard and the manual fitting programs that are both included with the BiaEvaluation Software V4.1.
Here, each record is paired with measured pKd data.
// pKd: -log10(molar conc.)

The following binders have reported results that may help.
binder="241# (antibody, human IgG1, kappa, V domains shown) VH: QVQLQESGPGLVRPSQTLSLTCTVSGYSITSDHAWSWVRQPPGRGLEWIGYISYSGMTTYNPSLKSRVTMLRDTSKNQFSLRLSSVTAADTAVYYCARCLARMTAIDFWGQGSLVTVSS VL: DIQMTQSPSSLSASVGDRVTITCRASQDISSYLNWYQQKPGKAPKLLIYYTSRLHSGVPSRFSGSGSGTDFTFTISSLQPEDIATYYCGQGNRLPYTFGQGTKVEIKR" measurement_name=pKd assay_value=9.69
binder="209# (antibody, human IgG1, kappa, V domains shown, also called Sample # 209) VH: QVQLQESGPGLVRPSQTLSLTCTVSGYSITSDHAWSWVRQPPGRGLEWIGFISYSGMTTYNPSLKSRVTMLRDTSKNQFSLRLSSVTAADTAVYYCARSLARITAIDFWGQGSLVTVSS VL: DIQMTQSPSSLSASVGDRVTITCRASQDISSYLNWYQQKPGKAPKLLIYYTSRLHSGVPSRFSGSGSGTDFTFTISSLQPEDIATYYCQQGNTLPYTFGQGTKVEIKR" measurement_name=pKd assay_value=12.17

Query binder follows.
*Q* Data request, read-out pKd, for 239# (antibody, human IgG1, kappa, V domains shown) VH: QVQLQESGPGLVRPSQTLSLTCTVSGYSITSDHAWSWVRQPPGRGLEWIGYISYSGMITYNPSLKSRVTMLRDTSKNQFSLRLSSVTAADTAVYYCARCLARATAMDYWGQGSLVTVSS VL: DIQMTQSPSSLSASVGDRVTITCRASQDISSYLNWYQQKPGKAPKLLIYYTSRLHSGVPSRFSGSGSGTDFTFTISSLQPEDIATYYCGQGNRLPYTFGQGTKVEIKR
*A* 9.79
